test system: S. flava pb1a-like; assay: control-subtracted net OSN firing rate; higher = stronger neuronal activation; details: odorant dilution (vol/vol): 10^-5
Would you kindly list control-subtracted net OSN firing rate for each of these molecules?
// return numeric value only (unit: spikes/s, not printed)

Just so you know, measured control-subtracted net OSN firing rate for CCCC(=O)OCC [ethyl butyrate] came out at 2

Just so you know, measured control-subtracted net OSN firing rate for CCCCN=C=S [butyl isothiocyanate] came out at -4

Just so you know, measured control-subtracted net OSN firing rate for CCC1CCC(=O)O1 (configuration not stated) [γ-hexalactone] came out at -3.43

Just so you know, measured control-subtracted net OSN firing rate for CCC(C)N=C=S (configuration not stated) [sec-butyl isothiocyanate] came out at -2.57

Just so you know, measured control-subtracted net OSN firing rate for CC(C)CN=C=S [isobutyl isothiocyanate] came out at 5.67

Just so you know, measured control-subtracted net OSN firing rate for CCC/C=C/C=O [trans-2-hexenal] came out at 58.6

Just so you know, measured control-subtracted net OSN firing rate for C=CCN=C=S [allyl isothiocyanate] came out at 11.4

====

system: S. pallida pb1a-like; assay: control-subtracted net OSN firing rate; higher = stronger neuronal activation; conditions: odorant dilution (vol/vol): 10^-4
recorded-endpoint: control-subtracted net OSN firing rate (spikes/s)
// return numeric value only (unit: spikes/s, not printed)

Entry CCCC(=O)OCC [ethyl butyrate] : control-subtracted net OSN firing rate on S. pallida pb1a-like = 111

Entry C=CCN=C=S [allyl isothiocyanate] : control-subtracted net OSN firing rate on S. pallida pb1a-like = 33.8

Entry CCC/C=C/C=O [trans-2-hexenal] : control-subtracted net OSN firing rate on S. pallida pb1a-like = 26.4

Entry CCC1CCC(=O)O1 (centres undefined) : control-subtracted net OSN firing rate on S. pallida pb1a-like = 34.3

====

Would you kindly list control-subtracted net OSN firing rate for each of these compounds?
tested on: S. montana pb1a-like; assay: control-subtracted net OSN firing rate; higher = stronger neuronal activation; details: odorant dilution (vol/vol): 10^-2
// return numeric value only (unit: spikes/s, not printed)

Just so you know, measured control-subtracted net OSN firing rate for CCC1CCC(=O)O1 (configuration not stated) came out at 186

Just so you know, measured control-subtracted net OSN firing rate for C=CCN=C=S [allyl isothiocyanate] came out at 168

Just so you know, measured control-subtracted net OSN firing rate for CCCC(=O)OCC [ethyl butyrate] came out at 236

Just so you know, measured control-subtracted net OSN firing rate for CCC(C)N=C=S (configuration not stated) [sec-butyl isothiocyanate] came out at 72.7

Just so you know, measured control-subtracted net OSN firing rate for CCC/C=C/C=O [trans-2-hexenal] came out at 187

Just so you know, measured control-subtracted net OSN firing rate for CC(C)CN=C=S [isobutyl isothiocyanate] came out at 164

Just so you know, measured control-subtracted net OSN firing rate for CCCCN=C=S [butyl isothiocyanate] came out at 124

====

test system: Canton-S pb1a; test: control-subtracted net OSN firing rate; higher = stronger neuronal activation; conditions: odorant dilution (vol/vol): 10^-3
recorded-endpoint: control-subtracted net OSN firing rate (spikes/s)
// return numeric value only (unit: spikes/s, not printed)

Just so you know, measured control-subtracted net OSN firing rate for CCC/C=C/C=O [trans-2-hexenal] came out at 34.7

Just so you know, measured control-subtracted net OSN firing rate for CCC1CCC(=O)O1 (centres undefined) came out at 217

Just so you know, measured control-subtracted net OSN firing rate for C=CCN=C=S [allyl isothiocyanate] came out at 27

Just so you know, measured control-subtracted net OSN firing rate for CCCC(=O)OCC [ethyl butyrate] came out at 209
